# system_under_test: TNFα trimer (Homo sapiens)
# Sequence (P01375 77-233 limits assumed): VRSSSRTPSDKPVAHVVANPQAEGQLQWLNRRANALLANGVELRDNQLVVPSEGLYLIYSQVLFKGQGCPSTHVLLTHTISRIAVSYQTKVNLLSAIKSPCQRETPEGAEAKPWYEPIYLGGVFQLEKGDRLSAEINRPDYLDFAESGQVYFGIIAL
# procedure_text: TNFα FP Competitive Binding Assay
# test_settings: fluorescence polarization competition; 20 nM TNFα trimer, 1 nM OregonGreen488 probe; read-out: TNF IC50 (TNFα FP binding assay IC50)
pIC50: −log10 of the molar value.
readout_label: pIC50

Known results for compounds:
>>> result("COc1ccccc1C1CCc2nc3ccc(-c4cnc(C(C)(C)O)nc4)cn3c21 (stereo not drawn) [Example 10]")
"> 6.00"
>>> result("Fc1cccc(C2CCc3nc4ccc(-c5cnc(N6CCOCC6)nc5)nc4n32)c1 (stereo not drawn) [M.1]")
"> 6.00"
>>> result("O=C1NCC2CN(c3ncc(-c4ccc5nc6n(c5c4)C(c4ccccc4C(F)(F)F)COC6)cn3)CCN12 (stereo not drawn) [Example 35]")
"> 6.00"

The value of pIC50 measured for the compound Cc1c(-c2ccc3nc4n(c3c2)C(c2ccccc2)CC4)cnn1C (stereo not drawn) [A.28] turned out to be 4.00 to 5.00

The value of pIC50 measured for the compound c1ccc(C2CCCc3nc4ccc(-c5cnc(N6CCOCC6)nc5)nc4n32)cc1 (stereo not drawn) [O.1] turned out to be > 6.00

The value of pIC50 measured for the compound Cc1ccc(C)c(C2CCc3nc4ccc(-c5cnc(N6CCOCC6)nc5)nc4n32)c1 (stereo not drawn) [N.1] turned out to be > 6.00

The value of pIC50 measured for the compound N#CCc1ccc(-c2ccc3nc4n(c3c2)C(c2ccccc2)CC4)cc1 (stereo not drawn) [A.7] turned out to be > 6.00

The value of pIC50 measured for the compound CCOc1cncc(-c2ccc3nc4n(c3c2)C(c2ccccc2)CC4)c1 (stereo not drawn) [A.15] turned out to be 5.00 to 6.00

The value of pIC50 measured for the compound c1ccc([C@H]2COCc3nc4ccc(-c5cnc(N6CCC7(CC6)COC7)nc5)cc4n32)cc1 [G.8] turned out to be > 6.00

All figures here come from patent US20180179198A1.
